Values were extracted from the supplement of paper PMC11208160.

ASSAY_REMARKS: recombinant barcode read abundance after kanamycin selection (control-corrected) (log10(CPM+1)); higher = more efficient recombination; sequences stand for … in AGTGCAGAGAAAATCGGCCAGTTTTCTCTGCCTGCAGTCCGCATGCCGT…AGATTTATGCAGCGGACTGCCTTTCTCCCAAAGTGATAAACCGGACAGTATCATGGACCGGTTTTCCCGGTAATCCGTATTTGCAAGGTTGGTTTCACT; site = the 11-nt target;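 also: IS621 recombinase and bridge RNA in Escherichia coli cells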
MEASURED_ATTRIBUTE: recombinant barcode read abundance (log10)
Give bare numbers.

Sample records with recombinant barcode read abundance (log10):
SEQ	OBSERVED_VALUE
GGTTGTCCTTGGGTTCTAACCTGTTGCGG (site GGTTGACCTCC)	0.237
TAGCAGTCTTGGGTTCTAACCTGTTGCGC (site CGCGCCACTAG)	0.251
TAGCATGCTTGGGTTCTAACCTGTTGCAC (site TAGCATGCTCT)	0.203
CCGTCTACTTGGGTTCTAACCTGTTGCTC (site CCGTCTACTTA)	0.0131
CAAGTCGCTTGGGTTCTAACCTGTTGCCT (site CAAGTTGCTAG)	0.0227

// input: 5 sequences below; output: recombinant barcode read abundance (log10) for each
1. GCACTACCTTGGGTTCTAACCTGTTGCCT (site GCACTACCTAG)
2. GGTATGTCTTGGGTTCTAACCTGTTGCCT (site GGTATGTCTAG)
3. AGGTGTCCTTGGGTTCTAACCTGTTGCGA (site TATATATCTAT)
4. TATCCCTCTTGGGTTCTAACCTGTTGCCT (site TATCCCTCTAG)
5. AGTTGCTCTTGGGTTCTAACCTGTTGCCT (site AGTTGCTCTAG)

(A)
1.37
1.96
0.247
1.14
0.468
